- assayed_system: Muscarinic acetylcholine receptor M1 (Rattus norvegicus)
- method: antagonists of rat M1 muscarinic receptor (AID 628)
- condition_set: CHO-M1 cells, Fluo-4 calcium, ACh EC80 antagonist mode; at 10 µM; stronger effect = lower value
Among all 64,000 compounds or so, about 2,200 (3.4%) were called active. The sample as a whole holds a higher share of actives than the screen did.
A collection of compounds and their measured B-score
assay_readout: B-score

# compound, assayed_system, result_value
records = [
    ("CCc1ccc(-c2nnn(Cc3nn[nH]n3)n2)cc1", "Muscarinic acetylcholine receptor M1 (Rattus norvegicus)", 0.0832),
    ("CCOC(=O)c1c(C)[nH]c(C(=O)COc2ccc3c(c2)OCO3)c1C", "Muscarinic acetylcholine receptor M1 (Rattus norvegicus)", -0.104),
    ("CN(C)S(=O)(=O)c1ccc(Oc2ccc(S(=O)(=O)N(C)C)cc2)cc1", "Muscarinic acetylcholine receptor M1 (Rattus norvegicus)", -0.154),
    ("CCCCOC(=O)c1[nH]c(C)c(C(=O)OC)c1C", "Muscarinic acetylcholine receptor M1 (Rattus norvegicus)", 1.78),
    ("Cc1c(C(=O)Nc2ccccc2Cl)oc2ccc(S(=O)(=O)N3CCC4(CC3)OCCO4)cc12", "Muscarinic acetylcholine receptor M1 (Rattus norvegicus)", 2.7),
    ("O=C(CSc1nc2ccccc2[nH]1)c1cccs1", "Muscarinic acetylcholine receptor M1 (Rattus norvegicus)", 0.722),
    ("Cc1ccc(S(=O)(=O)N2CCC(N3CCCCCC3)CC2)cc1", "Muscarinic acetylcholine receptor M1 (Rattus norvegicus)", -0.781),
    ("Cn1c(=NC(=O)C2CC2)sc2cc(F)cc(F)c21", "Muscarinic acetylcholine receptor M1 (Rattus norvegicus)", -2.24),
    ("Cc1ccc(-c2ccc(=O)n(CC(=O)NCCCN3CCCCC3)n2)cc1", "Muscarinic acetylcholine receptor M1 (Rattus norvegicus)", -0.074),
    ("Cc1ccc(N2CCN(S(=O)(=O)c3ccc(F)cc3)CC2)c(C)c1", "Muscarinic acetylcholine receptor M1 (Rattus norvegicus)", 1.98),
    ("COc1ccccc1Nc1ncc(C(C)=O)c(C)n1", "Muscarinic acetylcholine receptor M1 (Rattus norvegicus)", -0.0613),
    ("Cc1ccc(S(=O)(=O)N2CCC(C(=O)N[C@@H](C)C(=O)NCc3ccccc3)CC2)cc1", "Muscarinic acetylcholine receptor M1 (Rattus norvegicus)", 0.328),
    ("CN(C)[C@@H]1C(=O)C(C(N)=O)=C(O)[C@@]2(O)C(=O)C3=C(O)c4c(O)ccc(Cl)c4[C@@H](O)[C@H]3C[C@@H]12", "Muscarinic acetylcholine receptor M1 (Rattus norvegicus)", -15.3),
    ("CCOc1ccccc1NC(=O)CCc1ccc(C)o1", "Muscarinic acetylcholine receptor M1 (Rattus norvegicus)", 0.759),
    ("CCC/C(O)=C1\\C(=O)CC(C)(C)CC1=Nc1ccccc1OC", "Muscarinic acetylcholine receptor M1 (Rattus norvegicus)", -1.93),
    ("CCc1ccccc1NC(=O)CSc1nnc([C@@H](NC(=O)OC(C)(C)C)C(C)CC)o1 (stereo partly drawn)", "Muscarinic acetylcholine receptor M1 (Rattus norvegicus)", -0.00145),
    ("O=c1c2ccccc2oc2nc3n(c(=O)c12)CCCS3", "Muscarinic acetylcholine receptor M1 (Rattus norvegicus)", 0.0394),
    ("O=C(CCn1c(=O)[nH]c2ccccc2c1=O)NCCCN1CCN(c2cccc(Cl)c2)CC1", "Muscarinic acetylcholine receptor M1 (Rattus norvegicus)", -1.14),
    ("O=C(CCCn1c(=O)[nH]c2cc(Cl)ccc2c1=O)NCCN1CCN(c2ccccc2)CC1", "Muscarinic acetylcholine receptor M1 (Rattus norvegicus)", 12.4),
    ("CCOC(=O)N1CCC(NC(=O)CCc2cn(C)c3ccccc23)CC1", "Muscarinic acetylcholine receptor M1 (Rattus norvegicus)", 0.483),
    ("CCOC(=O)C1CCN(C(=O)c2oc3ccc(S(=O)(=O)N4CCCCCC4)cc3c2C)CC1", "Muscarinic acetylcholine receptor M1 (Rattus norvegicus)", -0.942),
    ("COc1cc(OC)c(C(=O)NC2CCCCCC2)cc1OC", "Muscarinic acetylcholine receptor M1 (Rattus norvegicus)", -1.64),
    ("CCC1=C(C(=O)OC)C(c2cc(OC)ccc2OC)C(C#N)=C(N)O1 (stereo not drawn)", "Muscarinic acetylcholine receptor M1 (Rattus norvegicus)", 0.513),
    ("O=C1CC(Cc2ccccc2)C(=O)N1c1ccc(Cl)cn1 (stereo not drawn)", "Muscarinic acetylcholine receptor M1 (Rattus norvegicus)", -0.406),
    ("Cc1ccc(C)c(NC(=O)CSc2nnc(Cc3cccn3C)n2-c2ccc(F)cc2)c1", "Muscarinic acetylcholine receptor M1 (Rattus norvegicus)", 0.873),
    ("COc1ccc(-n2nnnc2SCC(=O)c2ccc(OC)c(OC)c2)cc1", "Muscarinic acetylcholine receptor M1 (Rattus norvegicus)", -0.785),
    ("CCOc1ccccc1N=C1NC(=O)CS1", "Muscarinic acetylcholine receptor M1 (Rattus norvegicus)", 0.266),
    ("COc1ccccc1N=C1SC(C)CN1C(=O)C1CCC1 (stereo not drawn)", "Muscarinic acetylcholine receptor M1 (Rattus norvegicus)", 0.0033),
    ("C=CCOC(=O)C1=C(C)OC(N)=C(C#N)C1c1ccc(F)cc1 (stereo not drawn)", "Muscarinic acetylcholine receptor M1 (Rattus norvegicus)", 0.263),
    ("CCS(=O)(=O)n1nc(-c2ccc(OC)cc2)nc1SC", "Muscarinic acetylcholine receptor M1 (Rattus norvegicus)", 0.364),
    ("CCOc1ccc(-c2nnn(CC(=O)N3CCN(c4ccc(OC)cc4)CC3)n2)cc1OCC", "Muscarinic acetylcholine receptor M1 (Rattus norvegicus)", 0.00223),
    ("FC(F)(F)c1cccc(Nc2ncnc3ccccc23)c1", "Muscarinic acetylcholine receptor M1 (Rattus norvegicus)", 0.376),
    ("Cc1ccc(Nc2nc(CSc3nnnn3-c3ccccc3)cc(=O)[nH]2)cc1", "Muscarinic acetylcholine receptor M1 (Rattus norvegicus)", -0.208),
]
